Below, each entry is listed alongside its reported T/C.
# Test system: BDF1 mice, colon carcinoma 38 sc, T/C %
# assay remarks: NCI In Vivo Anticancer Drug Screen. Data for tumor model Colon Carcinoma 38 (subcutaneous) in B6D2F1 (BDF1) mice
# experimental context: endpoint: median tumor weight (est.); dose: 4.0 mg/kg/injection; schedule: Q07DX002 (ip); vehicle: saline; higher = larger tumour
# Protocol: The antitumor activity of compounds was measured in mice bearing transplantable tumors. Survival or tumor size were measured and the results are expressed as the measurement made in the treated group (T) divided by the measurement made in the vehicle treated control group (C). The tumor model used in this assay is Colon Carcinoma 38 (subcutaneous) in B6D2F1 (BDF1) mice
Records with an inconclusive call do not appear.

Recorded T/C, per entry:
compound | observed measurement
CC(C)CCCCCCCCCCCCC(=O)NCC(=O)NC1C(O)C(O)C(Nc2ncnc3nc[nH]c23)OC1C(O)CO (stereo not given) | 76 % of control
Nc1ncn(C2CC(O)C(CO)O2)c(=O)n1 (stereo not given) | 43 % of control
O=C1C(NCC(O)CO)=C(N2CC2)C(=O)C(NCC(O)CO)=C1N1CC1 (stereo not given) | 60 % of control

Which T/C is listed for C=C1C(=O)OCC1C(=O)O (stereo not given) ?
290 % of control

Which T/C is listed for [Cl][Mn][Cl] ?
97 % of control

----------
Below, each entry is listed alongside its reported T/C.
# System: BDF1 mice, colon carcinoma 38 sc, T/C %
# assay remarks: NCI In Vivo Anticancer Drug Screen. Data for tumor model Colon Carcinoma 38 (subcutaneous) in B6D2F1 (BDF1) mice
# experimental context: endpoint: median tumor weight (est.); dose: 8.0 mg/kg/injection; schedule: Q07DX002 (ip); vehicle: Klucel (hydroxypropylcellulose) (HPC); higher = larger tumour
Results filed as inconclusive are left out.

compound | measured quantity | observed measurement
Clc1ccc(C(c2ccc(Cl)cc2)C(Cl)(Cl)Cl)cc1 | T/C | 94 % of control
CC(C)NCC(O)COc1cccc2ccccc12 (centres undefined) | T/C | 100 % of control
CC(C)(C)c1ccc(CN2CCN(C(c3ccccc3)c3ccc(Cl)cc3)CC2)cc1 (centres undefined) | T/C | 92 % of control

# evaluate next
Which T/C is listed for O=C(NP(=O)(N1CC1)N1CC1)c1cc(I)ccc1I ?
105 % of control

----------
# System: BDF1 mice, colon carcinoma 38 sc, T/C %
# assay remarks: NCI In Vivo Anticancer Drug Screen. Data for tumor model Colon Carcinoma 38 (subcutaneous) in B6D2F1 (BDF1) mice
# experimental context: endpoint: median tumor weight (est.); dose: 25.0 mg/kg/injection; schedule: Q07DX003 (ip); vehicle: saline; higher = larger tumour
Inconclusive results are not listed.
measured quantity: T/C

Recorded T/C, per entry:
compound | tested target | measured quantity | observed measurement
OC(CCl)CN1CC[N+]2(CC1)CC[N+]1(CCN(CC(O)CCl)CC1)CC2 (stereo not drawn) | BDF1 mice, colon carcinoma 38 sc, T/C % | T/C | 91 % of control
Nc1ncnc2c1ncn2C1OC(CO)C(O)C1O (stereo not drawn) | BDF1 mice, colon carcinoma 38 sc, T/C % | T/C | 233 % of control

Which T/C is listed for c1cc2n(n1)CCN2 ?
92 % of control

Which T/C is listed for N=C(N)Sc1cc(O)ccc1O ?
66 % of control

Which T/C is listed for C1OC1CN1CCN(CC2CO2)CC1 (stereo not drawn) ?
20 % of control

Which T/C is listed for COC(OC(CO)C(O)S(=O)(=O)O)C(O)S(=O)(=O)O (stereo not drawn) ?
100 % of control

Which T/C is listed for CN(CO)c1nc(N(C)CO)nc(N(C)CO)n1 ?
165 % of control

Which T/C is listed for ClCC[N+]12CC[N+](CCCl)(CC1)C2 ?
65 % of control
